target: T1, Human GPA33 (recombinant protein, Novoprotein) (human, UniProt Q99795 22-235)
T1 construct: Bought recombinant protein immobilized on a CM5 chip; also called GPA33 antigen; tumor antigen GPA33
T1 sequence: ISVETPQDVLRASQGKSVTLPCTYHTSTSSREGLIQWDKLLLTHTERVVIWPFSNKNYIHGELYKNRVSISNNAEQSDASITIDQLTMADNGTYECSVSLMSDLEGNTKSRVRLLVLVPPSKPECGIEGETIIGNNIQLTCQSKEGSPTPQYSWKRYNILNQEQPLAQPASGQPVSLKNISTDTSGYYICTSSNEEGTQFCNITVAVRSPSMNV
assay: SPR (Biacore), binding to GPA33 protein; IgG format
pKd: −log10 of the molar value.

binder	pKd
G3A_VK3+VH1 (antibody, IgG1, V domains shown) VH: EVQLVESGGGLVKPGGSLRLSCAASGFAFSTYDMSWVRQAPGKGLEWVSTISSGGSYTYYADSVKGRFTISRDNAKNSLYLQMNSLRAEDTAVYYCAPTTVVPFAYWGQGTLVTVSA VL: DIQMTQSPSSLSTSVGDRVTITCKASQNVRTVVAWYQQKPGKAPKTLIYLASNRHSGVPSRFSGSGSGTEFTLTISNLQPEDFATYYCLQHWSYPLTFGSGTKLEVK	9.72
G3A_chimeric (antibody, V domains shown) VH: EVKLVESGGGLVKPGGSLKLSCAASGFAFSTYDMSWVRQTPEKRLEWVATISSGGSYTYYLDSVKGRFTISRDSARNTLYLQMSSLRSEDTALYYCAPTTVVPFAYWGQGTLVTVSA VL: DIVMTQSQKFMSTSVGDRVSITCKASQNVRTVVAWYQQKPGQSPKTLIYLASNRHTGVPDRFTGSGSGTDFTLTISNVQSEDLADYFCLQHWSYPLTFGSGTKLEVK	9.71
G3A_VK8+VH1 (antibody, V domains shown) VH: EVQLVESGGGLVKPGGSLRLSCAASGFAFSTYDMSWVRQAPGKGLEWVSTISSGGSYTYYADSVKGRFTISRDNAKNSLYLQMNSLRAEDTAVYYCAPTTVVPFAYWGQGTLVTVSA VL: DIQMTQSPSSLSASVGDRVTITCKASQNVRTVVAWYQQKPGKAPKRLIYLASNRHTGVPSRFSGSGSGTEFTLTISNLQPEDFADYYCLQHWSYPLTFGSGTKLEVK	9.01
G3A_VK8+VH2 (antibody, V domains shown) VH: EVQLVESGGGLVKPGGSLRLSCAASGFAFSTYDMSWVRQAPGKGLEWVATISSGGSYTYYLDSVKGRFTISRDSAKNSLYLQMNSLRAEDTAVYYCAPTTVVPFAYWGQGTLVTVSA VL: DIQMTQSPSSLSASVGDRVTITCKASQNVRTVVAWYQQKPGKAPKRLIYLASNRHTGVPSRFSGSGSGTEFTLTISNLQPEDFADYYCLQHWSYPLTFGSGTKLEVK	8.73
G3A_VK7+VH2 (antibody, V domains shown) VH: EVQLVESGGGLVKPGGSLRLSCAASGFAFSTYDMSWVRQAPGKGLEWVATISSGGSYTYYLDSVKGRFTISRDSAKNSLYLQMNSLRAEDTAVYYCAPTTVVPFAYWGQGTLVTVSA VL: DIQMTQSPSSLSASVGDRVTITCKASQNVRTVVAWYQQKPGKAPKRLIYLASNRHTGVPSRFSGSGSGTEFTLTISNVQPEDFATYYCLQHWSYPLTFGSGTKLEVK	8.76
